Source: patent US20240180877A1

Molecular target: Recombinant human α3/β4 nicotinic acetylcholine receptors (nAChR (α3β4)) (Homo sapiens, UniProt P30926+P32297)
Construct: host or cells: CHO-K1
Sequence (P30926 22-498): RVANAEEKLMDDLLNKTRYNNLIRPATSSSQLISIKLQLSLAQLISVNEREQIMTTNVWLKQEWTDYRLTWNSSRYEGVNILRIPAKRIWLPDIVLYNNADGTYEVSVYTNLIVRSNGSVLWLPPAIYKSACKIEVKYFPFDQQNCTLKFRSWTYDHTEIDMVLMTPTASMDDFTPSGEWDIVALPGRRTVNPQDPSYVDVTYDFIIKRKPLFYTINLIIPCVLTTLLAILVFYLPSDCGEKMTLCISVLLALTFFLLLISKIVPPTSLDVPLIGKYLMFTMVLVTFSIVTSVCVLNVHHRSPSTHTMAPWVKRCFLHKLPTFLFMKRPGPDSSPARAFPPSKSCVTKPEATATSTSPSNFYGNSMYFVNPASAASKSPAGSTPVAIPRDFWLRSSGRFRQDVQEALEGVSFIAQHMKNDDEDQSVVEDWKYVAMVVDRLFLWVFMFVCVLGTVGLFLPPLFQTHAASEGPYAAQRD
Sequence (P32297 32-505): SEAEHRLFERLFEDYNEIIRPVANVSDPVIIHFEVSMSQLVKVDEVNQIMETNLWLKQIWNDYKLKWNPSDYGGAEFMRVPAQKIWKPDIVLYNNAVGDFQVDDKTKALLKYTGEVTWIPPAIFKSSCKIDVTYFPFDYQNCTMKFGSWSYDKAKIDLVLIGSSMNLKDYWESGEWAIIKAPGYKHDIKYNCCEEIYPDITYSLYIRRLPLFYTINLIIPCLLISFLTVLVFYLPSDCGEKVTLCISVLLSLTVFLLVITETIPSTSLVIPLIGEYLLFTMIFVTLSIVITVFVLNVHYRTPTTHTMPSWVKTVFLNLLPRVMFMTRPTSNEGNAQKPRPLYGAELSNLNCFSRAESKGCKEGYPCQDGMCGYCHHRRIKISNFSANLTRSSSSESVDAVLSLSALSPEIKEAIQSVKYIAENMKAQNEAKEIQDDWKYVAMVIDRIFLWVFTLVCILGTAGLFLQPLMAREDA
Test: Inhibition of [125I]epibatidine binding to nAChR (α3β4) cell membranes
Conditions: five concentrations 30-3000 μM; 0.05 nM [125I]epibatidine; CHO-K1 cell membranes; 25° C., 60 minutes; read-out: 50% inhibitory concentration
Description: In order to evaluate molecular targets for reducing glutamate signaling by L-ergothioneine, nicotinic acetylcholine receptors associated with glutamate signaling were subjected to in vitro assay. The in vitro assay was commissioned to Eurofins Panlabs. The test was performed by the following method. Recombinant human α3/β4 nicotinic acetylcholine receptors (nAChR (α3β4)) expressed in Chinese hamster ovary-derived CHO-K1 cells were used. […]
TEST_READOUT: IC50 (mM)
Reply numerically in mM, unit not repeated.

Name the reported IC50 value associated with the molecule C[N+](C)(C)[C@@H](Cc1c[nH]c(=S)[nH]1)C(=O)[O-] [L-ergothioneine]
1.11
